Values compiled from PubChem BioAssay AID1963983.

test system: 186277-243-T-J2-PDC multi-cell spheroid viability; assay: Anticancer human tumor 186277-243-T-J2-PDC patient-derived colon adenocarcinoma cell line growth inhibition [PI3K]; conditions: second compound 0.0316 µM; first compound 0.0316 µM; stronger effect = lower value
# Lookup of reported viability, T/C keyed by entry
Give the number; % is assumed, so skip it.

Reference set, count: 2
In: Report viability, T/C for CCCS(=O)(=O)Nc1ccc(F)c(C(=O)c2c[nH]c3ncc(-c4ccc(Cl)cc4)cc23)c1F + Cc1nc(NC(=O)N2CCCC2C(N)=O)sc1-c1ccnc(C(C)(C)C(F)(F)F)c1 tested on 186277-243-T-J2-PDC multi-cell spheroid viability.
Out: 88.2

In: Report viability, T/C for C#Cc1c(F)ccc2cc(O)cc(-c3ncc4c(N5CC6CCC(C5)N6)nc(OCC56CCCN5CC(F)C6)nc4c3F)c12 (stereo not drawn) + Cc1nc(NC(=O)N2CCCC2C(N)=O)sc1-c1ccnc(C(C)(C)C(F)(F)F)c1 tested on 186277-243-T-J2-PDC multi-cell spheroid viability.
Out: 84.8

Turning to the following compound.
In: Report viability, T/C for C=CC(=O)N1CCN(c2nc(=O)n(-c3c(C)ccnc3C(C)C)c3nc(-c4c(O)cccc4F)c(F)cc23)C(C)C1 (stereo not drawn) + Cc1nc(NC(=O)N2CCCC2C(N)=O)sc1-c1ccnc(C(C)(C)C(F)(F)F)c1 tested on 186277-243-T-J2-PDC multi-cell spheroid viability.
Out: 83.7

====

system: 186277-243-T-J2-PDC multi-cell spheroid viability; test: Anticancer human tumor 186277-243-T-J2-PDC cell line growth inhibition [PI3K]; conditions: second compound 0.00316 µM; first compound 0.1 µM; stronger effect = lower value;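 also: spheroids exposed to compounds for seven days before viability reading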;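 as to viability, T/C: 100% = DMSO vehicle control viability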
API: label(entry) gives MET if the entry's viability, T/C is strictly smaller than 80%; on equality or larger values it gives NOT MET.

In: Is it true that viability, T/C reported for CCCS(=O)(=O)Nc1ccc(F)c(C(=O)c2c[nH]c3ncc(-c4ccc(Cl)cc4)cc23)c1F + COc1c(OCCCN2CCOCC2)ccc2c3n(c(=NC(=O)c4cnc(N)nc4)nc12)CCN3 is less than 80%?
Out: NOT MET

---
In: Is it true that viability, T/C reported for CC(C)NCC(C(=O)N1CCN(c2ncnc3c2C(C)CC3O)CC1)c1ccc(Cl)cc1 (stereo unspecified) + COc1c(OCCCN2CCOCC2)ccc2c3n(c(=NC(=O)c4cnc(N)nc4)nc12)CCN3 is less than 80%?
Out: NOT MET

In: Is it true that viability, T/C reported for CCN1CCN(Cc2ccc(Nc3ncc(F)c(-c4cc(F)c5nc(C)n(C(C)C)c5c4)n3)nc2)CC1 + CC(Nc1ccc2c(c1)OCCn1cc(N3C(=O)OCC3C(F)F)nc1-2)C(N)=O is less than 80%?
Out: NOT MET

In: Is it true that viability, T/C reported for CC1(C)CCC(CN2CCN(c3ccc(C(=O)NS(=O)(=O)c4ccc(NCC5CCOCC5)c([N+](=O)[O-])c4)c(Oc4cnc5[nH]ccc5c4)c3)CC2)=C(c2ccc(Cl)cc2)C1 + CC(Nc1ccc2c(c1)OCCn1cc(N3C(=O)OCC3C(F)F)nc1-2)C(N)=O is less than 80%?
Out: NOT MET

In: Is it true that viability, T/C reported for C=CC(=O)N1CCN(c2nc(=O)n(-c3c(C)ccnc3C(C)C)c3nc(-c4c(O)cccc4F)c(F)cc23)C(C)C1 (stereo unspecified) + CC(Nc1ccc2c(c1)OCCn1cc(N3C(=O)OCC3C(F)F)nc1-2)C(N)=O is less than 80%?
Out: NOT MET

In: Is it true that viability, T/C reported for Cn1ncc(Cl)c1-c1cc(C(=O)NC(CN)Cc2cccc(F)c2)sc1Cl (stereo unspecified) + CC(Nc1ccc2c(c1)OCCn1cc(N3C(=O)OCC3C(F)F)nc1-2)C(N)=O is less than 80%?
Out: MET

In: Is it true that viability, T/C reported for CCCS(=O)(=O)Nc1ccc(F)c(C(=O)c2c[nH]c3ncc(-c4ccc(Cl)cc4)cc23)c1F + CC(Nc1ccc2c(c1)OCCn1cc(N3C(=O)OCC3C(F)F)nc1-2)C(N)=O is less than 80%?
Out: NOT MET

In: Is it true that viability, T/C reported for CNC(=O)c1ccc(N2C(=S)N(c3ccc(C#N)c(C(F)(F)F)c3)C(=O)C2(C)C)cc1F + COc1c(OCCCN2CCOCC2)ccc2c3n(c(=NC(=O)c4cnc(N)nc4)nc12)CCN3 is less than 80%?
Out: NOT MET

In: Is it true that viability, T/C reported for Cn1ncc(Cl)c1-c1cc(C(=O)NC(CN)Cc2cccc(F)c2)sc1Cl (stereo unspecified) + COc1c(OCCCN2CCOCC2)ccc2c3n(c(=NC(=O)c4cnc(N)nc4)nc12)CCN3 is less than 80%?
Out: MET

In: Is it true that viability, T/C reported for CC1(C)CCC(CN2CCN(c3ccc(C(=O)NS(=O)(=O)c4ccc(NCC5CCOCC5)c([N+](=O)[O-])c4)c(Oc4cnc5[nH]ccc5c4)c3)CC2)=C(c2ccc(Cl)cc2)C1 + COc1c(OCCCN2CCOCC2)ccc2c3n(c(=NC(=O)c4cnc(N)nc4)nc12)CCN3 is less than 80%?
Out: NOT MET

In: Is it true that viability, T/C reported for CC(Cn1ccc(-c2ccc(C#N)c(Cl)c2)n1)NC(=O)c1cc(C(C)O)[nH]n1 (stereo unspecified) + CC(Nc1ccc2c(c1)OCCn1cc(N3C(=O)OCC3C(F)F)nc1-2)C(N)=O is less than 80%?
Out: NOT MET

In: Is it true that viability, T/C reported for Cn1ncnc1[C@H]1c2n[nH]c(=O)c3cc(F)cc(c23)N[C@@H]1c1ccc(F)cc1 + CC(Nc1ccc2c(c1)OCCn1cc(N3C(=O)OCC3C(F)F)nc1-2)C(N)=O is less than 80%?
Out: NOT MET

In: Is it true that viability, T/C reported for CC(C)n1nc(-c2ccc3oc(N)nc3c2)c2c(N)ncnc21 + COc1c(OCCCN2CCOCC2)ccc2c3n(c(=NC(=O)c4cnc(N)nc4)nc12)CCN3 is less than 80%?
Out: MET

In: Is it true that viability, T/C reported for C#Cc1c(F)ccc2cc(O)cc(-c3ncc4c(N5CC6CCC(C5)N6)nc(OCC56CCCN5CC(F)C6)nc4c3F)c12 (stereo unspecified) + COc1c(OCCCN2CCOCC2)ccc2c3n(c(=NC(=O)c4cnc(N)nc4)nc12)CCN3 is less than 80%?
Out: MET

In: Is it true that viability, T/C reported for CCN1CCN(Cc2ccc(Nc3ncc(F)c(-c4cc(F)c5nc(C)n(C(C)C)c5c4)n3)nc2)CC1 + COc1c(OCCCN2CCOCC2)ccc2c3n(c(=NC(=O)c4cnc(N)nc4)nc12)CCN3 is less than 80%?
Out: NOT MET

====

tested on: 186277-243-T-J2-PDC multi-cell spheroid viability; experiment: Anticancer human tumor 186277-243-T-J2-PDC cell line growth inhibition [PI3K]; conditions: curve of first compound; second compound 0.1 µM;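 also: spheroids exposed to compounds for seven days before viability reading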
quantity: IC50

Reference set, count: 6
In: Any idea what IC50 was measured for CNC(=O)c1ccc(N2C(=S)N(c3ccc(C#N)c(C(F)(F)F)c3)C(=O)C2(C)C)cc1F + Cc1nc(NC(=O)N2CCCC2C(N)=O)sc1-c1ccnc(C(C)(C)C(F)(F)F)c1 ?
Out: > 10000 nM

In: Any idea what IC50 was measured for C=CC(=O)N1CCN(c2nc(=O)n(-c3c(C)ccnc3C(C)C)c3nc(-c4c(O)cccc4F)c(F)cc23)C(C)C1 (stereo unspecified) + CC(Nc1ccc2c(c1)OCCn1cc(N3C(=O)OCC3C(F)F)nc1-2)C(N)=O ?
Out: > 10000 nM

In: Any idea what IC50 was measured for Cn1cnc2c(F)c(Nc3ccc(Br)cc3Cl)c(C(=O)NOCCO)cc21 + CC(Nc1ccc2c(c1)OCCn1cc(N3C(=O)OCC3C(F)F)nc1-2)C(N)=O ?
Out: 11.9 nM

In: Any idea what IC50 was measured for Cn1ncnc1[C@H]1c2n[nH]c(=O)c3cc(F)cc(c23)N[C@@H]1c1ccc(F)cc1 + Cc1nc(NC(=O)N2CCCC2C(N)=O)sc1-c1ccnc(C(C)(C)C(F)(F)F)c1 ?
Out: > 100 nM

In: Any idea what IC50 was measured for CCN1CCN(Cc2ccc(Nc3ncc(F)c(-c4cc(F)c5nc(C)n(C(C)C)c5c4)n3)nc2)CC1 + CC(Nc1ccc2c(c1)OCCn1cc(N3C(=O)OCC3C(F)F)nc1-2)C(N)=O ?
Out: > 1000 nM

In: Any idea what IC50 was measured for CNC(=O)c1ccc(N2C(=S)N(c3ccc(C#N)c(C(F)(F)F)c3)C(=O)C2(C)C)cc1F + CC(Nc1ncnc2nc[nH]c12)c1cc2cccc(Cl)c2c(=O)n1-c1ccccc1 ?
Out: > 10000 nM

---
In: Any idea what IC50 was measured for CC1(C)CCC(Nc2ncc(C(F)(F)F)c(-c3c[nH]c4c(P(C)(C)=O)c(C#N)ccc34)n2)CN1 (stereo unspecified) + Cc1nc(NC(=O)N2CCCC2C(N)=O)sc1-c1ccnc(C(C)(C)C(F)(F)F)c1 ?
Out: 4030 nM

In: Any idea what IC50 was measured for C=CC(=O)N1CCN(c2nc(=O)n(-c3c(C)ccnc3C(C)C)c3nc(-c4c(O)cccc4F)c(F)cc23)C(C)C1 (stereo unspecified) + COc1c(OCCCN2CCOCC2)ccc2c3n(c(=NC(=O)c4cnc(N)nc4)nc12)CCN3 ?
Out: < 31.6 nM

In: Any idea what IC50 was measured for CC(=O)c1c(C)c2cnc(Nc3ccc(N4CCNCC4)cn3)nc2n(C2CCCC2)c1=O + COc1c(OCCCN2CCOCC2)ccc2c3n(c(=NC(=O)c4cnc(N)nc4)nc12)CCN3 ?
Out: < 0.316 nM

In: Any idea what IC50 was measured for CC(=O)c1c(C)c2cnc(Nc3ccc(N4CCNCC4)cn3)nc2n(C2CCCC2)c1=O + Cc1nc(NC(=O)N2CCCC2C(N)=O)sc1-c1ccnc(C(C)(C)C(F)(F)F)c1 ?
Out: > 100 nM

In: Any idea what IC50 was measured for CC1(C)CCC(CN2CCN(c3ccc(C(=O)NS(=O)(=O)c4ccc(NCC5CCOCC5)c([N+](=O)[O-])c4)c(Oc4cnc5[nH]ccc5c4)c3)CC2)=C(c2ccc(Cl)cc2)C1 + CC(Nc1ncnc2nc[nH]c12)c1cc2cccc(Cl)c2c(=O)n1-c1ccccc1 ?
Out: 4450 nM

In: Any idea what IC50 was measured for Cn1ncc(Cl)c1-c1cc(C(=O)NC(CN)Cc2cccc(F)c2)sc1Cl (stereo unspecified) + Cc1nc(NC(=O)N2CCCC2C(N)=O)sc1-c1ccnc(C(C)(C)C(F)(F)F)c1 ?
Out: 253 nM

In: Any idea what IC50 was measured for CC(C)n1nc(-c2ccc3oc(N)nc3c2)c2c(N)ncnc21 + CC(Nc1ncnc2nc[nH]c12)c1cc2cccc(Cl)c2c(=O)n1-c1ccccc1 ?
Out: 59.2 nM

In: Any idea what IC50 was measured for Cn1cnc2c(F)c(Nc3ccc(Br)cc3Cl)c(C(=O)NOCCO)cc21 + CC(Nc1ncnc2nc[nH]c12)c1cc2cccc(Cl)c2c(=O)n1-c1ccccc1 ?
Out: 162 nM

In: Any idea what IC50 was measured for CC1(C)CCC(CN2CCN(c3ccc(C(=O)NS(=O)(=O)c4ccc(NCC5CCOCC5)c([N+](=O)[O-])c4)c(Oc4cnc5[nH]ccc5c4)c3)CC2)=C(c2ccc(Cl)cc2)C1 + Cc1nc(NC(=O)N2CCCC2C(N)=O)sc1-c1ccnc(C(C)(C)C(F)(F)F)c1 ?
Out: 4440 nM

In: Any idea what IC50 was measured for C#Cc1c(F)ccc2cc(O)cc(-c3ncc4c(N5CC6CCC(C5)N6)nc(OCC56CCCN5CC(F)C6)nc4c3F)c12 (stereo unspecified) + COc1c(OCCCN2CCOCC2)ccc2c3n(c(=NC(=O)c4cnc(N)nc4)nc12)CCN3 ?
Out: < 31.6 nM

In: Any idea what IC50 was measured for C#Cc1c(F)ccc2cc(O)cc(-c3ncc4c(N5CC6CCC(C5)N6)nc(OCC56CCCN5CC(F)C6)nc4c3F)c12 (stereo unspecified) + CC(Nc1ccc2c(c1)OCCn1cc(N3C(=O)OCC3C(F)F)nc1-2)C(N)=O ?
Out: < 31.6 nM

In: Any idea what IC50 was measured for CC(C)NCC(C(=O)N1CCN(c2ncnc3c2C(C)CC3O)CC1)c1ccc(Cl)cc1 (stereo unspecified) + COc1c(OCCCN2CCOCC2)ccc2c3n(c(=NC(=O)c4cnc(N)nc4)nc12)CCN3 ?
Out: < 31.6 nM

In: Any idea what IC50 was measured for C#Cc1c(F)ccc2cc(O)cc(-c3ncc4c(N5CC6CCC(C5)N6)nc(OCC56CCCN5CC(F)C6)nc4c3F)c12 (stereo unspecified) + CC(Nc1ncnc2nc[nH]c12)c1cc2cccc(Cl)c2c(=O)n1-c1ccccc1 ?
Out: 93.1 nM

In: Any idea what IC50 was measured for Cn1nccc1Nc1nccc(-c2ccn(C(CO)c3ccc(Cl)c(F)c3)c(=O)c2)n1 (stereo unspecified) + CC(Nc1ncnc2nc[nH]c12)c1cc2cccc(Cl)c2c(=O)n1-c1ccccc1 ?
Out: 2380 nM

In: Any idea what IC50 was measured for CCCS(=O)(=O)Nc1ccc(F)c(C(=O)c2c[nH]c3ncc(-c4ccc(Cl)cc4)cc23)c1F + Cc1nc(NC(=O)N2CCCC2C(N)=O)sc1-c1ccnc(C(C)(C)C(F)(F)F)c1 ?
Out: 5410 nM
